test system: giant foxtail (Setaria faberii); test: Test A preemergence; assay type: in vivo; settings: Setaria faberi, pre-emergence, 240 h, 31 g ai/ha, Preemergence; 0 to 100 scale where 0 is no effect and 100 is complete control; read-out: Foxtail, Giant plant response rating
Entries and their measured pest or weed control at 31 g/ha follow.
Outcome Measure: pest or weed control at 31 g/ha (%)

[[record]]
smiles_notation = "CN1C[C@H](c2csc3c2CCCC3)[C@@H](C(=O)Nc2cccc(F)c2F)C1=O"
quantitative_result = 90

[[record]]
smiles_notation = "C=C(C)c1ccc([C@H]2CN(C)C(=O)[C@@H]2C(=O)Nc2ccc(F)c(F)c2F)cc1"
quantitative_result = 90

[[record]]
smiles_notation = "Cc1ccc([C@H]2CN(C)C(=O)[C@@H]2C(=O)Nc2cccc(F)c2C)cc1"
quantitative_result = 100

[[record]]
smiles_notation = "Cc1cc([C@H]2CN(C)C(=O)[C@@H]2C(=O)Nc2cccc(F)c2F)no1"
quantitative_result = 20

[[record]]
smiles_notation = "CN1C[C@H](c2ccc(C(F)(F)F)cc2)[C@@H](C(=O)Nc2ccccc2-n2cncn2)C1=O"
quantitative_result = 0

[[record]]
smiles_notation = "Cc1cc([C@H]2CN(C)C(=O)[C@@H]2C(=O)Nc2ccccc2C(F)(F)F)ccc1Br"
quantitative_result = 70

[[record]]
smiles_notation = "CN1C[C@H](c2ccccc2)[C@@H](C(=O)Nc2cccc(F)c2F)C1=O"
quantitative_result = 100

[[record]]
smiles_notation = "CSc1ccccc1NC(=O)[C@H]1C(=O)N(C)C[C@@H]1c1ccc(C)cc1"
quantitative_result = 90

[[record]]
smiles_notation = "Cn1ccc2ccc([C@H]3CNC(=O)[C@@H]3C(=O)Nc3ccccc3F)cc21"
quantitative_result = 0

[[record]]
smiles_notation = "COc1c([C@H]2CN(C)C(=O)[C@@H]2C(=O)Nc2ccccc2F)cccc1C(F)(F)F"
quantitative_result = 80

